// provenance: patent US12390517B2

- targetEntity: recombinant MsrA/B (methionine sulfoxide reductase) from N. gonorrhoeae 1291, amino acids 30-522 of SEQ ID NO: 1 (recombinant with 6-His tag SEQ ID NO: 15); tag (Neisseria gonorrhoeae, UniProt P14930, E520K)
- Construct: 6-His tag (N); thrombin cleavage site (N); made in house; host or cells: E. coli BL21 Star (DE3)pLysS
- Sequence (P14930 with tags, fused parts or gaps E520K): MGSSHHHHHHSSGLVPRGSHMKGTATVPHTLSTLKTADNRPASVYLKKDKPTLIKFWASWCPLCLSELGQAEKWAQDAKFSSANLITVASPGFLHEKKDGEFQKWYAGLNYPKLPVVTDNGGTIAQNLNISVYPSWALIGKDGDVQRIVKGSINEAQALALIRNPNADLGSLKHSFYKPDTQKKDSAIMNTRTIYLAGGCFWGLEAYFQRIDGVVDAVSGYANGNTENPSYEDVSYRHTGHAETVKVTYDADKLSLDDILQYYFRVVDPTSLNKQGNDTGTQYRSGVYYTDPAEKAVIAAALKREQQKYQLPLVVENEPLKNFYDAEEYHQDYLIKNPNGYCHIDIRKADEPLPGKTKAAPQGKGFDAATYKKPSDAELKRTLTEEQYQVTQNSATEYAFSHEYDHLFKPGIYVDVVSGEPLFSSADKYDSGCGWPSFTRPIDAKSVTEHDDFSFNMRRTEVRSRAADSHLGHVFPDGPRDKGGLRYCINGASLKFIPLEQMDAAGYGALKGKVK
- runDescription: Surface plasmon resonance (SPR) affinity assay of Met(O) binding to immobilized MsrA/B
- Parameters: species or system Neisseria gonorrhoeae 1291
- conditionNotes: read-out: KD (equilibrium dissociation constant), Biacore T200, MsrA/B immobilized on CM5 chip, Met(O) 0.16 to 100 nM, single cycle kinetics, absence of serum/antibody
attributeMeasured: pKd
Numbers only, as −log10 of the molar value.

// pKd value for C[S+]([O-])CC[C@H](N)C(=O)O (stereo partly shown) [Met(O), methionine sulfoxide] : 7.81
